- ASSAY COMMENT: In vivo drug exposure in the brain after systemic dosing
- RUN PARAMETERS: female, mouse, brain and plasma; C57BL/6 mice, intravenous 5 mg/kg dose, ratio of AUC(0-INF)
- Experimental: Blood collection: The animal was restrained manually at designated time points up to 24 h, approximately 110 μL of blood sample was collected via facial vein into K2EDTA tubes. Blood sample was put on ice and centrifuged at 2000 g for 5 min (4° C.) to obtain plasma sample within 15 minutes. Brain collection: The animal was euthanized under CO2. A mid-line incision was made in the animal's scalp and skin retracted. The skull overlying the brain was removed. […]
QUANTITY: Kp
Reply briefly: the number, and no unit.

Inquiry: Which measured Kp value corresponds to CCCC(c1ccc(CCCN2CCC(CNc3ncc(SCc4ncc(C(C)(C)C)o4)s3)CC2)cc1)N(C)C(=O)/C(C#N)=C/c1nc2ccccc2s1 (stereo not shown) ?
Reply text: 0.6
